This collection of values is drawn from PubChem BioAssay (EPA / NIEHS).

Read-out: Collagen III, COL3A1 (gene 1281)
Assay: BSK_MyoF_CollagenIII: BioMAP Diversity Plus: MyoF Assay for Collagen III Biomarker Activity (AID 2284239)
Settings: primary human lung fibroblasts
Calls of active or inactive are those of the source. The calls were made as follows: active = hit-call score of the fitted dose curve at least 0.9, where 1 is the maximum; inactive = score below 0.9.
Just give me one of these, please: yes (1) = active, no (0) = inactive

Prompt line: Can you look up the reported call for `O=C(O)C(F)(F)C(F)(F)C(F)(F)C(F)(F)C(F)(F)C(F)(F)C(F)(F)C(F)F` for me?
Response line: no (0)

Prompt line: // outcome(item) with item = `CC(=O)CCC=C(C)CCC=C(C)C`
Response line: no (0)

Prompt line: In this assay, the call recorded for `CC=CC(=O)C1=C(C)C=CCC1(C)C` was what?
Response line: no (0)

Prompt line: Hi team, can someone confirm the assay call for CC(=O)OC(C)(C)C1CC=C(C)CC1 (configuration not stated) ?
Response line: no (0)

Prompt line: Hello, I am checking results. What call was entered for `C=CC(=O)OCC(CO)(COC(=O)C=C)COC(=O)C=C` ?
Response line: yes (1)

Prompt line: Entry `CC(C)(C)c1cccc(O)c1` : call = ?
Response line: no (0)

Prompt line: Any idea what this test logged for `COc1ccccc1NC(=O)CC(C)=O` ?
Response line: no (0)

Prompt line: Call for entry `C=C(C)C(=O)OCCC(F)(F)C(F)(F)C(F)(F)C(F)(F)C(F)(F)C(F)(F)C(F)(F)C(F)(F)F` :
Response line: no (0)

Prompt line: Test call, this compound: `Nc1ccc(N)c([N+](=O)[O-])c1`
Response line: no (0)

Prompt line: Assay result, entry `O=C1OC2(c3ccc(O)cc3Oc3cc(O)ccc32)c2ccccc21` — outcome?
Response line: no (0)

Prompt line: Recorded call for `CC1(C)[C@H](C=C(Cl)Cl)[C@H]1C(=O)OCc1cccc(Oc2ccccc2)c1` ?
Response line: no (0)

Prompt line: In this assay, the call recorded for `CCOC(=O)C=Cc1ccccc1` was what?
Response line: no (0)

---

Test: ATG_Sox_CIS: Attagene CIS-FACTORIAL HepG2 Assay for human SRY-box transcription factor (SOX) (AID 2282960)
Settings: HepG2 Attagene cis-factorial SOX reporter, mRNA; actives raise or lower the signal
Calls of active or inactive are those of the source. The calls were made as follows: active = hit-call score of the fitted dose curve at least 0.9, where 1 is the maximum; inactive = score below 0.9.
Lab note: assign the record to one of active, inactive

Prompt line: I would be grateful if you could indicate the recorded call for CC(=O)OC(C)(C)C1CC=C(C)CC1 (centres undefined) .
Response line: inactive

Prompt line: Any idea what this test logged for CC1(C)CC(N)CC(C)(CN)C1 (centres undefined) ?
Response line: inactive

Prompt line: GET /call?item= `C=CC(=O)OCCCCCC` returns the recorded outcome of this test.
Response line: inactive

Prompt line: Which outcome did this test record for the compound `CCc1cccc(O)c1` ?
Response line: inactive

Prompt line: So what was the verdict on CCCCOCC(C)OCC(C)O (centres undefined) in this test?
Response line: inactive

Prompt line: Could you kindly confirm the outcome this assay logged for `Nc1ccn([C@H]2CC[C@@H](CO)O2)c(=O)n1` ?
Response line: inactive

Prompt line: Look up the recorded call for `O=C(O)CS` in this test.
Response line: inactive

Prompt line: Outcome? `CCCCCCCCCCCCCCCCCC(=O)OCCCCCCCCCCCCCC(C)C`
Response line: inactive

Prompt line: Test call, this compound: `CCOC(=O)CCCCCCCCC(=O)OCC`
Response line: inactive

Prompt line: # fetch the recorded call for `CC(=O)CCc1ccc(O)cc1` here
Response line: inactive

Prompt line: Hi, do you know how `Cc1cccc(O)c1` came out in this test?
Response line: inactive

Prompt line: Give the logged outcome of this assay for the following compound: `CC1=CC[C@@H](C(C)(C)O)CC1`
Response line: inactive

Prompt line: Record lookup: outcome of this test for CCCCOC(=O)C(C)OC(=O)CCC (centres undefined) ?
Response line: inactive

Prompt line: Any idea what this test logged for `C=C/C(C)=C/C/C=C(\C)CCC=C(C)C` ?
Response line: inactive

Prompt line: Recorded call for CCCC(O)C(CC)CO (centres undefined) ?
Response line: inactive

Prompt line: Returns: the outcome recorded for `C=CCOC(=O)/C=C\C(=O)OCC=C` in this assay.
Response line: active

Prompt line: Just curious, what result did `COc1cc(OC)c2ccc(=O)oc2c1` get here?
Response line: inactive

Prompt line: How did this test come out for `Cc1cc(N)n(-c2ccccc2)n1` ?
Response line: inactive

Prompt line: Query: recorded result category for `CC(CO)(CO)[N+](=O)[O-]` in this test
Response line: inactive

Prompt line: Please state the recorded outcome for this compound: `O=S1(=O)CC(Cl)(Cl)C(Cl)(Cl)C1`
Response line: inactive

Prompt line: Dear colleague, could you share the recorded outcome for `CCCCCCCCCCO[C@@H]1O[C@H](CO)[C@@H](O)[C@H](O)[C@H]1O` when you have a moment?
Response line: inactive

Prompt line: So what was the verdict on `CCCCN(CCCC)CCCCCCN(CCCC)CCCC` in this test?
Response line: inactive

Prompt line: Which outcome was entered for the compound `C=C(C)C(=O)OCCN(C)C` in this test?
Response line: inactive

Prompt line: Answer briefly: the call reported for `CCCCCCCCCC(=O)OCC` in this assay.
Response line: inactive

Prompt line: // return assay outcome for `COc1ccc(N)c(C)c1`
Response line: inactive

Prompt line: Which outcome was entered for the compound `CCn1cc(C(=O)O)c(=O)c2ccc(C)nc21` in this test?
Response line: inactive

Prompt line: Identify the outcome logged in this assay for the compound shown: `O=C(OCc1ccccc1)c1ccccc1O`
Response line: inactive

Prompt line: Status in this test for `C[N+](C)(C)CCO` ?
Response line: inactive

Prompt line: Field: outcome | Entry: `COc1ccc(C(C)=O)cc1`
Response line: inactive

Prompt line: Please let me know the test result on file for `CCCOC(=O)CC` .
Response line: inactive

Prompt line: Recorded test outcome, item `CCOC(=O)C=Cc1ccccc1`
Response line: inactive

Prompt line: How was `O=C(O)c1cc2ccccc2cc1O` classified in this test?
Response line: inactive

Prompt line: Could you please tell me the result logged for CCCCC(CC)COCCO (centres undefined) in this assay?
Response line: inactive

Prompt line: Recorded test outcome, item `CC1=CC[C@@H]2C[C@H]1C2(C)C`
Response line: inactive

Prompt line: Test call, this compound: `Cc1ccccc1S`
Response line: active

Prompt line: How was `O=C(C=Cc1ccccc1)OCCCc1ccccc1` classified in this test?
Response line: inactive

Prompt line: Status in this test for CCC(=O)OC(C)(C)C1CC=C(C)CC1 (centres undefined) ?
Response line: inactive

Prompt line: What call does the record list for `CC=CC(=O)C1=C(C)C=CCC1(C)C` ?
Response line: inactive

Prompt line: Look up the recorded call for `O=S(=O)(O)CCCN1CCOCC1` in this test.
Response line: inactive

Prompt line: Assay outcome for `CCC(CC)CO` : what was it?
Response line: inactive

Prompt line: Returns: the outcome recorded for `CC(=O)C1=C(C)[C@@H]2C[C@@]3(C1)[C@H](C)CC[C@H]3C2(C)C` in this assay.
Response line: inactive

Prompt line: # lookup: test call for `c1ccc(OCCOc2ccccc2)cc1`
Response line: inactive

Prompt line: Just curious, what result did CCOC(=O)CC1(C)OCC(C)O1 (centres undefined) get here?
Response line: inactive

Prompt line: I'd appreciate the recorded outcome for `CCCCOCCOCCO` from this test.
Response line: inactive

Prompt line: What did the test return for `CCNC(=S)NCC` ?
Response line: inactive

Prompt line: Recorded test outcome, item `CCCCCCCCOS(=O)(=O)O`
Response line: inactive

Prompt line: // param item: `CCCCCCCCOC(C)=O` ; yields the recorded call
Response line: inactive

Prompt line: Would you mind telling me which call this test gave `CC(=O)Oc1c(C)c(C)c2c(c1C)CC[C@@](C)(CCC[C@H](C)CCC[C@H](C)CCCC(C)C)O2` ?
Response line: inactive

Prompt line: Check the results log: what was the call for `CC(C)N(c1ccccc1)C(C)C` ?
Response line: inactive

---

Test: CEETOX_H295R_MTT_cell_viability: Viability Assessment in the CeeTox HT-H295R MTT Assay (AID 2283718);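 as to AC50: curve fitted both ways so AC50 may mark viability loss or gain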
Active and inactive are the calls of the source. Rule for the calls: active = hit-call score of the fitted dose curve at least 0.9, where 1 is the maximum; inactive = score below 0.9.
measure-name: AC50

Worked cases, answers included:
# compound, recorded-measurement
rows = [
    ("CC=CC(=O)C1=C(C)C=CCC1(C)C", "inactive"),
    ("CC(=O)OC/C=C(C)/C=C/C=C(C)/C=C/C1=C(C)CCCC1(C)C", "73.7 µM (active)"),
    ("C[C@]12CC[C@@H]3c4ccc(O)cc4CC[C@H]3[C@@H]1CC[C@@H]2O", "inactive"),
    ("CC(=O)C1=C(C)[C@@H]2C[C@@]3(C1)[C@H](C)CC[C@H]3C2(C)C", "50 µM (active)"),
    ("CCCc1ccc(O)cc1", "inactive"),
    ("c1ccc(OCCOc2ccccc2)cc1", "inactive"),
    ("COc1ccc2[nH]cc(CCNC(C)=O)c2c1", "inactive"),
    ("CC(=O)c1ccc2ccccc2c1", "inactive"),
]

Prompt line: Give the measured AC50 for CCCCCC1C(=O)CCC1CC(=O)OC (stereo not drawn)
Response line: inactive

Prompt line: Respond only with AC50 recorded for `CC(C)(C)c1cccc(O)c1`
Response line: inactive

Prompt line: Determine from records and report AC50 for `O=C(c1ccc(OCCN2CCCCC2)cc1)c1c(-c2ccc(O)cc2)sc2cc(O)ccc12`
Response line: inactive

Prompt line: Supply AC50 value. Item: `COC(=O)c1ccc(C(=O)OC)cc1`
Response line: inactive

Prompt line: For the compound `OCCCO` , report AC50.
Response line: inactive
